System: lipase
method_notes: Lipase/lipolysis assay (EnzChek Lipase Substrate, quenched BODIPY-fatty acid conjugate) on stored human milk; further: test concentration or dose not given here
Kindly supply the reported Lipase (RFU) values for the records listed here.
I'd appreciate it if you wrote the number followed by its unit.

CC(=O)Oc1c(C)c(C)c2c(c1C)CCC(C)(CCCC(C)CCCC(C)CCCC(C)C)O2 (racemic) [DL-α-Tocopherol acetate] :: 697.673 RFU
O.O.OC[C@H]1O[C@H](O[C@H]2O[C@H](CO)[C@@H](O)[C@H](O)[C@H]2O)[C@H](O)[C@@H](O)[C@@H]1O [D-(+)-Trehalose dihydrate] :: 1045.976 RFU
CC(C)=CC(=O)C[C@H](C)c1ccc(C)cc1 :: 1106.99 RFU

Moving on to another compound below.
[ask] Recall the recorded Lipase (RFU) for `COc1ccc(C(=O)O)cc1OC` with lipase and state it.
[reply] 944.3491 RFU

* * *

Kindly supply the reported Lipase (RFU) values for the records listed here.
System: lipase
method_notes: Lipase/lipolysis assay (EnzChek Lipase Substrate, quenched BODIPY-fatty acid conjugate) on stored human milk; further: test concentration or dose not given here
I'd appreciate it if you wrote the number followed by its unit.

Worked examples follow.
CC[C@H](N)C(=O)O :: 993.6587 RFU
COc1cc2c(CCNC(C)=O)c[nH]c2cc1O [Compound 6-Hydroxymelatonin] :: 976.0382 RFU
CC(C)CCC[C@@H](C)[C@H]1CC[C@H]2C3=CC[C@H]4C[C@@H](O)CC[C@]4(C)[C@H]3CC[C@]12C :: 1017.106 RFU
C/C(C=O)=C\CC[C@@H](C)[C@H]1CC[C@@]2(C)C3=CC[C@H]4C(C)(C)C(=O)CC[C@]4(C)C3=CC[C@]12C :: 1025.687 RFU
NC(=O)c1ccc[n+]([C@@H]2O[C@H](COP(=O)([O-])OP(=O)(O)OC[C@H]3O[C@@H](n4cnc5c(N)ncnc54)[C@H](OP(=O)(O)O)[C@@H]3O)[C@@H](O)[C@H]2O)c1 :: 1113.421 RFU

# per-item lookup of Lipase (RFU); items listed below
1. COc1c(-c2ccccc2)oc2cc(O)cc(O)c2c1=O
2. O=C(O)CCCC(=O)C(=O)O
3. OC[C@H]1O[C@@H](OC[C@H]2O[C@@H](O)[C@H](O)[C@@H](O)[C@@H]2O)[C@H](O)[C@@H](O)[C@@H]1O

[reply]
1: 819.4334 RFU; 2: 732.376 RFU; 3: 997.1115 RFU

* * *

Tested on: lipase
method_notes: Lipase/lipolysis assay (EnzChek Lipase Substrate, quenched BODIPY-fatty acid conjugate) on stored human milk; further: test concentration or dose not given here
Label key: YES means Lipase (RFU) under 1000 RFU; NO means Lipase (RFU) of 1000 RFU or more.

Worked set:
C=C1CCC2CC1C2(C)C (stereo not drawn) [β-Pinene] :: YES
CC(O)C(=O)[O-].CC(O)C(=O)[O-].[Ca+2] (stereo not drawn) [Lactate (calcium)] :: YES
COc1ccc(CC(=O)O)cc1O [Isohomovanillic acid] :: NO

[ask] Record COc1ccc(-c2cc(=O)c3c(O)c(OC)c(OC)cc3o2)cc1OC [5-Desmethylsinensetin] : is its Lipase (RFU) strictly below 1000 RFU?
[reply] NO

[ask] Note, next up: NC(COP(=O)(O)O)C(=O)O (racemic) [DL-O-Phosphoserine]
[reply] YES

[ask] Note, next up: NCCP(=O)(O)O [2-Aminoethyl Phosphonic Acid]
[reply] YES

[ask] Note, next up: CCCCOC(=O)c1ccc(O)cc1 [Butylparaben]
[reply] YES

[ask] Note, next up: CNC(C)(C)C(=O)O [MeAIB]
[reply] NO

[ask] Note, next up: NCc1[nH]cc(CCC(=O)O)c1CC(=O)O [Porphobilinogen]
[reply] NO

[ask] Note, next up: COc1nccc(N)n1 [Compound 2-O-Methylcytosine]
[reply] NO

* * *

Test system: lipase
method_notes: Lipase/lipolysis assay (EnzChek Lipase Substrate, quenched BODIPY-fatty acid conjugate) on stored human milk; further: test concentration or dose not given here
Where a SMILES comes first, the peptide text is derived from it.
Kindly supply the reported Lipase (RFU) values for the records listed here.
Answers are plain numbers, in RFU.

C[C@@H]1O[C@@H](O[C@H]2[C@H](Oc3c(-c4ccc(O)cc4)oc4cc(O)cc(O)c4c3=O)O[C@H](CO)[C@@H](O)[C@@H]2O)[C@H](O)[C@H](O)[C@H]1O [Kaempferol 3-neohesperidoside] :: 1019.446
C/C(=C\CC[C@@H](C)[C@H]1CC[C@@]2(C)C3=CC[C@H]4C(C)(C)[C@@H](O)CC[C@]4(C)C3=CC[C@]12C)CO :: 970.7443
C[C@H](N)C(=O)NCC(=O)O [(S)-2-(2-Aminopropanamido)acetic acid] (H-Ala-Gly-OH) :: 993.8076

Moving on to another compound below.
[ask] Which Lipase (RFU) is reported for this compound? C=CC/C(=N/OS(=O)(=O)[O-])S[C@@H]1OC(CO)[C@@H](O)C(O)C1O.[K+] (stereo partly shown)
[reply] 1002.884

* * *

System: lipase
method_notes: Lipase/lipolysis assay (EnzChek Lipase Substrate, quenched BODIPY-fatty acid conjugate) on stored human milk; further: test concentration or dose not given here
Class YES: Lipase (RFU) at least 1000 RFU. Class NO: Lipase (RFU) below 1000 RFU.

Worked set:
CCCCCC/C=C\CCCCCCCCCCCC(=O)O [Paullinic acid] :: YES
CC(=O)N[C@@H](CO)[C@@H](O)[C@H](O)[C@H](O)CO [N-Acetyl-D-Glucosaminitol] :: YES
COc1cc2c(cc1O)C[C@@H]1NCCc3cc(OC)c(O)c-2c31 [Norisoboldine] :: NO
O=c1cc(-c2ccc(O)cc2)oc2c([C@@H]3O[C@H](CO)[C@@H](O)[C@H](O)[C@H]3O)c(O)c([C@@H]3OC[C@@H](O)[C@H](O)[C@H]3O)c(O)c12 [Vicenin-1] :: YES

We now examine a further molecule.
[ask] Could you tell me if the measured Lipase (RFU) of O=C(O)c1cccc(O)c1O [Pyrocatechuic acid] reaches 1000 RFU or more?
[reply] NO

* * *

Tested on: lipase
method_notes: Lipase/lipolysis assay (EnzChek Lipase Substrate, quenched BODIPY-fatty acid conjugate) on stored human milk; further: test concentration or dose not given here
Where a SMILES comes first, the peptide text is derived from it.
Kindly supply the reported Lipase (RFU) values for the records listed here.
I'd appreciate it if you wrote the number followed by its unit.

Worked examples follow.
C[C@H](N)C(=O)NCC(=O)O [L-Alanyl-Glycine] (H-Ala-Gly-OH) :: 816.3246 RFU
CC(C)=CCC[C@](C)(O[C@@H]1O[C@H](CO)[C@@H](O)[C@H](O)[C@H]1O)[C@H]1CC[C@]2(C)[C@@H]1[C@H](O)C[C@@H]1[C@@]3(C)CC[C@H](O[C@@H]4O[C@H](CO)[C@@H](O)[C@H](O)[C@H]4O)C(C)(C)[C@@H]3CC[C@]12C [Ginsenoside F2] :: 926.1742 RFU
N[C@@H](CSCSC[C@H](N)C(=O)O)C(=O)O :: 317.7642 RFU
C[C@@H]1NC(=O)N[C@@H]1CCCCCC(=O)O :: 791.1157 RFU
Oc1ccc2c(c1)OCO2 :: 995.7089 RFU
O=C1CCCCCCCCCCCCCCO1 :: 959.0542 RFU
CC(=O)Oc1c(C)c(C)c2c(c1C)CCC(C)(CCC[C@H](C)CCC[C@H](C)CCCC(C)C)O2 (stereo partly drawn) [D-α-Tocopherol acetate] :: 1194.717 RFU
N#CC[C@H](N)C(=O)O :: 869.3786 RFU

# per-item lookup of Lipase (RFU); items listed below
1. Cl.Cl.NCCCCN [1,4-Diaminobutane (dihydrochloride)]
2. COc1cc(C[C@@H](CO)[C@H](CO)Cc2ccc(O)c(OC)c2)ccc1O

[reply]
865.534 RFU
1112.005 RFU

* * *

Kindly supply the reported Lipase (RFU) values for the records listed here.
Tested on: lipase
method_notes: Lipase/lipolysis assay (EnzChek Lipase Substrate, quenched BODIPY-fatty acid conjugate) on stored human milk; further: test concentration or dose not given here
Answers are plain numbers, in RFU.

O=C(O)[C@H]1O[C@@H](Oc2cc(O)c3c(=O)cc(-c4ccc(O)c(O)c4)oc3c2)[C@H](O)[C@@H](O)[C@@H]1O [Luteolin 7-O-glucuronide] :: 995.7867
CC(=O)O[C@H]1CC(=O)OC(C)(C)[C@@H]2CC(=O)[C@]3(C)[C@H](CC[C@@]4(C)[C@H](c5ccoc5)OC(=O)[C@H]5O[C@]543)[C@@]12C :: 989.5541
C/C=C/C=C/C=C\CC/C=C/C(=O)NCC(C)(C)O [Hydroxy-α-sanshool] :: 984.0163
Cn1cc(C(N)=O)ccc1=O [Nudifloramide] :: 993.1021

Moving on to another molecule below.
[ask] Recall the recorded Lipase (RFU) for `C[C@H](CCC(=O)O)[C@H]1CC[C@H]2[C@@H]3C(=O)C[C@@H]4C[C@H](O)CC[C@]4(C)[C@H]3CC[C@]12C` with lipase and state it.
[reply] 991.8245

Source listed as patent US12507703B2.
